System tested: EGFR L858R (Homo sapiens (Human), UniProt P00533, L858R)
Sequence (P00533 25-1210 L858R): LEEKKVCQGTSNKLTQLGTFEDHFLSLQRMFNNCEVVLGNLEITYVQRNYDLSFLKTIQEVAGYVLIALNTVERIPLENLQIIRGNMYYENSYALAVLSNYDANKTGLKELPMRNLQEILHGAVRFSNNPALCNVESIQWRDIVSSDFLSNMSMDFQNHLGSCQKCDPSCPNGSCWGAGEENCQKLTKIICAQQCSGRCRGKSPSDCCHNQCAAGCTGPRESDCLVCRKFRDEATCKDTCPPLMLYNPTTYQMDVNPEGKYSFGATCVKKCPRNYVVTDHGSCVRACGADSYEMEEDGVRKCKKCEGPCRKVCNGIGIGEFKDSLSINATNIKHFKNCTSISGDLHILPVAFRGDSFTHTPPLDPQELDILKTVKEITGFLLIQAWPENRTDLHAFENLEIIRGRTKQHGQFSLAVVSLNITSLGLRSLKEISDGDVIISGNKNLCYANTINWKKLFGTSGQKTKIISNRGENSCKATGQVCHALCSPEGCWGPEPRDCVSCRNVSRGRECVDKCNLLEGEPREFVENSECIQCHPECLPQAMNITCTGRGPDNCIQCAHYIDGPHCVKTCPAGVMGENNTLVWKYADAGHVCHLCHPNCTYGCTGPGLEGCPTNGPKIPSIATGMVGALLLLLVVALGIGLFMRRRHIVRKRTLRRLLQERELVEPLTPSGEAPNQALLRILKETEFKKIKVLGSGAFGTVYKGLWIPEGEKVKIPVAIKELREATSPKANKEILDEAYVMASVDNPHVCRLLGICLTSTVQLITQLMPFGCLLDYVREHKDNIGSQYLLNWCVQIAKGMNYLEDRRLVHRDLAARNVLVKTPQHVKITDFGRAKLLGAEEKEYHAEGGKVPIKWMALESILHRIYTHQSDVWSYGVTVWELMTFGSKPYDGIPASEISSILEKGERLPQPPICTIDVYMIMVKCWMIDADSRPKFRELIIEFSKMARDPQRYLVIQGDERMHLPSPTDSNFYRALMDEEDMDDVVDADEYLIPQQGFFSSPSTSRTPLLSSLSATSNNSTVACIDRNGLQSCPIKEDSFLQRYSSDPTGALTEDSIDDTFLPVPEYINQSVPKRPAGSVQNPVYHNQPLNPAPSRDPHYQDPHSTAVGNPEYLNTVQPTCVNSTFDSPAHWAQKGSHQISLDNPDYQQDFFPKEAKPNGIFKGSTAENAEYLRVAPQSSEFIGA
Assay name: HTRF-based EGFR biochemical assay (L858R)
Test conditions: 100 μM ATP, cells printed in μM
Test readout: IC50

Tell me the measured IC50 of CN1CCN(c2ccc(-c3cnc4c(c3)C(=O)N(C(C(=O)Nc3ccccn3)c3cccc(F)c3)C4)cn2)CC1 (stereo not shown) , please.
> 1 µM

###

Reported pIC50 is given for each of the following compounds.
System tested: EGFR L858R/T790M (Homo sapiens (Human), UniProt P00533, L858R/T790M)
Sequence (P00533 25-1210 T790M/L858R): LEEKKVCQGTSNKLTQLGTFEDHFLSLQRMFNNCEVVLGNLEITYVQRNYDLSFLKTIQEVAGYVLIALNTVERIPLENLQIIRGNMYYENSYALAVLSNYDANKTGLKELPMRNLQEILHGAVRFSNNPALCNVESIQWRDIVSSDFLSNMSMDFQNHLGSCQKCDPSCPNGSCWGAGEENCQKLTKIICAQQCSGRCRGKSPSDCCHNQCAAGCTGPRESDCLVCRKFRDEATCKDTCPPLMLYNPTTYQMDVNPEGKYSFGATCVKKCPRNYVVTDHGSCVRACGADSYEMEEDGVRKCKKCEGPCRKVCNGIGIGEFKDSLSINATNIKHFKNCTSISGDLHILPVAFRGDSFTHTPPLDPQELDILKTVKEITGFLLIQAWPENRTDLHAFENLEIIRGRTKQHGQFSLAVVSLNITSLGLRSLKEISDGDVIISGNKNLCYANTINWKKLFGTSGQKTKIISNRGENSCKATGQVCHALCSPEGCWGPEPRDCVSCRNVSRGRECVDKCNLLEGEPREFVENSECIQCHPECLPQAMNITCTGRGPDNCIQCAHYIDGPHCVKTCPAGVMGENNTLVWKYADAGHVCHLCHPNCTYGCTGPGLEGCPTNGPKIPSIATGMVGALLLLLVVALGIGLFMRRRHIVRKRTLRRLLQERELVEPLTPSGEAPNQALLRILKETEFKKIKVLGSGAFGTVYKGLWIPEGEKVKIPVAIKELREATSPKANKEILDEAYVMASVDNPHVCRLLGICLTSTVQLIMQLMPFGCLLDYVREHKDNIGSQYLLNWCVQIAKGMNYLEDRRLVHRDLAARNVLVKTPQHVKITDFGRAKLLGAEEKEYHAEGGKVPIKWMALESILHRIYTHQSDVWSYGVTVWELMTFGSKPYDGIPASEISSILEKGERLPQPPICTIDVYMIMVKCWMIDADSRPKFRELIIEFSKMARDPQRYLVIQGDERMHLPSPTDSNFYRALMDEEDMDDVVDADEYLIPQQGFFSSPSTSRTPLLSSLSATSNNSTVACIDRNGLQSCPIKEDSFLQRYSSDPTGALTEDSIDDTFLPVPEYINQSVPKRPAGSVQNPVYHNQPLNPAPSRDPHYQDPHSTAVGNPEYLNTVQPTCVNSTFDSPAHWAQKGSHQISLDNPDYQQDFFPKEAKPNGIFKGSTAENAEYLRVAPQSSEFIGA
Assay name: HTRF-based EGFR biochemical assay (L858R/T790M)
Test conditions: 100 μM ATP
For clarity, pIC50 is expressed as the negative log10 of concentration in mol/L.

Some solved entries appear below for comparison.
[[record]]
compound = "CN1CCN(c2ccc(-c3cnc4c(c3)C(=O)N(C(C(=O)Nc3nccs3)c3cccc(F)c3)C4)cc2)CC1 (centres unmarked)"
numeric_value = 8.40

[[record]]
compound = "CN1CCC(c2ccc(-c3ccc4c(n3)C(=O)N(C(C(=O)Nc3ccccn3)c3cc(F)ccc3O)C4)cc2)CC1 (centres unmarked)"
numeric_value = 9.40

[[record]]
compound = "CN1CCC(c2ccc(-c3ccc4c(n3)C(=O)N(C(C(=O)Nc3nccs3)c3cccc(F)c3)C4)cc2)C1 (centres unmarked)"
numeric_value = 9.00

[[record]]
compound = "CN1CCC(c2ccc(-c3cnc4c(c3)C(=O)N(C(C(=O)Nc3nccs3)c3cccc(F)c3)C4)cc2)CC1 (centres unmarked)"
numeric_value = 9.00

[[record]]
compound = "CN1CCN(c2ccc(-c3cnc4c(c3)C(=O)N(C(C(=O)Nc3ccccn3)c3cccc(F)c3)C4)cn2)CC1 (centres unmarked)"
numeric_value = 7.39

[[record]]
compound = "CN1CCC(c2ccc(-c3cnc4c(c3)C(=O)N(C(C(=O)Nc3ccccn3)c3cc(F)ccc3O)C4)cc2)CC1 (centres unmarked)"
numeric_value = 9.00


Tell me the measured pIC50 of CN1CCN(c2ccc(-c3cc4c(cn3)CN(C(C(=O)Nc3nccs3)c3cccc(F)c3)C4=O)cc2)CC1 (centres unmarked) , please.
8.00

Again, but for CN1CCC(c2ccc(-c3cnc4c(c3)C(=O)N(C(C(=O)Nc3nccs3)c3cccc(F)c3)C4)cn2)CC1 (centres unmarked)
8.05

Again, but for CN1CCC(c2ccc(-c3ccc4c(n3)C(=O)N(C(C(=O)Nc3nccs3)c3cccc(F)c3)C4)cc2F)CC1 (centres unmarked)
9.00

Again, but for CN1CCC(c2ccc(-c3ccc4c(n3)C(=O)N(C(C(=O)Nc3nccs3)c3cccc(F)c3)C4)cc2)CC1 (centres unmarked)
9.00

Again, but for CN1CCN(c2ccc(-c3ccc4c(n3)C(=O)N(C(C(=O)Nc3nccs3)c3cccc(F)c3)C4)cn2)CC1 (centres unmarked)
8.22

Again, but for CN1CCN(c2ccc(-c3ccc4c(n3)C(=O)N(C(C(=O)Nc3nccs3)c3cccc(F)c3)C4)cc2)CC1 (centres unmarked)
8.40

Again, but for CN1CCC(c2ccc(-c3ccc4c(n3)C(=O)N(C(C(=O)Nc3nccs3)c3cccc(F)c3)C4)c(F)c2)CC1 (centres unmarked)
9.15

Again, but for CN1CCC(c2ccc(-c3cnc4c(c3)C(=O)N(C(C(=O)Nc3nccs3)c3cccc(F)c3)C4)cc2)C1 (centres unmarked)
8.52
